- Measured target: T1, human soluble IL6-R (human, UniProt P08887 20-358)
- T1 chain: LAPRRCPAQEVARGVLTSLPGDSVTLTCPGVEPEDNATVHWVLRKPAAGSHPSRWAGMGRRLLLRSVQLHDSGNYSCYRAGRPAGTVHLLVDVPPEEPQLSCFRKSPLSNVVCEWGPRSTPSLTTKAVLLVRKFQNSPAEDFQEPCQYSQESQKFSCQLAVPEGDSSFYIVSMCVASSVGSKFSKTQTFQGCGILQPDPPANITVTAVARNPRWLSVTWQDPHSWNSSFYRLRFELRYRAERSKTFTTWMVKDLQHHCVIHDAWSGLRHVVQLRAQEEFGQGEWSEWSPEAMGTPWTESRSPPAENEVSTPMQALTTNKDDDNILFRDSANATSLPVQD
- Assay info: Alphascreen inhibition of IL6/IL6-R interaction
pEC50: −log10 of the molar value.
Measure name: pEC50

Please review the entries below; each comes with its answer.
binder="IL6R03 (VHH) VHH: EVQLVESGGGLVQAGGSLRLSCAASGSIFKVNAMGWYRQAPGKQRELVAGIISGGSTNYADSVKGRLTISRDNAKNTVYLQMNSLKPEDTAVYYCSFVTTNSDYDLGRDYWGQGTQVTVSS" measure_name=pEC50 result_value=9.73
binder="IL6R61 (VHH) VHH: EVQLVESGGGLVQPGGSLRLSCAASGSIFKVNAMGWYRQAPGKGRELVAGIISGGSTNYADSVKGRLTISRDNAKNTVYLQMNSLRPEDTAVYYCSFVTTNSDYDLGRDYWGQGTLVTVSS" measure_name=pEC50 result_value=9.47

1: IL6R63 (VHH) VHH: EVQLVESGGGLVQPGGSLRLSCAASGSIFKVNAMGWYRQAPGKGRELVAGIISGGSTNYADSVKGRLTISRDNAKNTLYLQMNSLRPEDTAVYYCSFVTTNSDYDLGRDYWGQGTLVTVSS
2: IL6R62 (VHH) VHH: EVQLVESGGGLVQPGGSLRLSCAASGSIFKVNAMGWYRQAPGKGRELVAGIISGGSTNYADSVKGRFTISRDNAKNTVYLQMNSLRPEDTAVYYCSFVTTNSDYDLGRDYWGQGTLVTVSS
3: IL6R64 (VHH) VHH: EVQLVESGGGLVQPGGSLRLSCAASGSIFKVNAMGWYRQAPGKGRELVAGIISGGSTNYADSVKGRLTISRDNAKNTVYLQMNSLRPEDTAVYYCAFVTTNSDYDLGRDYWGQGTLVTVSS
input: Form: Sort by [pEC50] Order [ ascending ] Reply: labels, ordered per the request.
output: 1, 2, 3
(1: 9.19, 2: 9.55, 3: 9.97)

These measurements were taken from patent US20180016342A1.
